Quick record of AC50 values for Sodium-dependent dopamine transporter (Homo sapiens, UniProt Q01959).
measurement-name: AC50

>>> test_value("CC(=O)N1CCN(c2ccc(OCC3COC(Cn4ccnc4)(c4ccc(Cl)cc4Cl)O3)cc2)CC1 (configuration not stated)")
"> 30 µM"
>>> test_value("Nc1nc(Cl)nc2c1ncn2[C@@H]1O[C@H](CO)[C@@H](O)[C@@H]1F")
"> 30 µM"
>>> test_value("COC(=O)c1ccc2c(c1)NC(=O)/C2=C(\\Nc1ccc(N(C)C(=O)CN2CCN(C)CC2)cc1)c1ccccc1")
"> 30 µM"
>>> test_value("O=C(c1ccccc1)c1ccc2n1CCC2C(=O)O (configuration not stated)")
"> 10 µM"
>>> test_value("Cc1ccc(-c2ncc(Cl)cc2-c2ccc(S(C)(=O)=O)cc2)cn1")
"> 10 µM"
>>> test_value("C=CC1=C(C(=O)O)N2C(=O)[C@@H](NC(=O)/C(=N\\O)c3csc(N)n3)[C@H]2SC1")
"> 30 µM"
>>> test_value("COc1cc2c(cc1OC)C1CC(=O)C(CC(C)C)CN1CC2 (configuration not stated)")
"> 30 µM"
>>> test_value("CN(C)CCc1c[nH]c2ccc(CS(=O)(=O)N3CCCC3)cc12")
"> 30 µM"
>>> test_value("CC1NCCOC1c1ccccc1 (configuration not stated)")
"25.6 µM"
>>> test_value("CCCCOC(=O)c1ccc(N)cc1")
"> 30 µM"
>>> test_value("CS(=O)(=O)NC(=O)CCC/C=C\\C[C@H]1C(=O)C[C@@H](O)[C@@H]1/C=C/[C@@H](O)COc1ccccc1")
"> 30 µM"
>>> test_value("CC1(C)O[C@@H]2C[C@H]3[C@@H]4CCC5=CC(=O)C=C[C@]5(C)[C@@]4(F)[C@@H](O)C[C@]3(C)[C@]2(C(=O)CO)O1 [TRIAMCINOLONE ACETONIDE]")
"> 30 µM"
>>> test_value("CC(=O)OCC1=C(C(=O)O)N2C(=O)[C@@H](NC(=O)CSc3ccncc3)[C@H]2SC1")
"> 10 µM"
>>> test_value("CCOc1cc2ncc(C#N)c(Nc3ccc(OCc4ccccn4)c(Cl)c3)c2cc1NC(=O)/C=C/CN(C)C")
"> 10 µM"
>>> test_value("COc1nc(C)nc(Cl)c1N=C1NCCN1")
"> 30 µM"
>>> test_value("Oc1cc(O)c2c(c1)O[C@H](c1ccc(O)c(O)c1)[C@@H](O)C2")
"> 30 µM"
>>> test_value("CC(=O)Oc1cccc2c1C(=O)c1c(OC(C)=O)cc(C(=O)O)cc1C2=O")
"> 30 µM"

* * *

Quick record of AC50 values for D(1A) dopamine receptor (Homo sapiens).
measurement-name: AC50

>>> test_value("CCOc1ccc(Cc2nccc3cc(OCC)c(OCC)cc23)cc1OCC [ETHAVERINE]")
"8.59 µM"
>>> test_value("Cn1c(CCCC(=O)O)nc2cc(N(CCCl)CCCl)ccc21 [BENDAMUSTINE]")
"> 30 µM"
>>> test_value("CC(C)(Oc1ccc(C(=O)c2ccc(Cl)cc2)cc1)C(=O)O [FENOFIBRIC ACID]")
"> 30 µM"
>>> test_value("O=C(OOC(=O)c1ccccc1)c1ccccc1 [BENZOYL PEROXIDE]")
"> 30 µM"
>>> test_value("Cc1ncc(CO)c(CO)c1O [PYRIDOXINE]")
"> 30 µM"
>>> test_value("CN1CCC(N(Cc2cccs2)c2ccccc2)CC1 [THENALIDINE]")
"11.6 µM"
>>> test_value("O=c1[nH]c2ccccc2n1CCN1CCN(c2cccc(C(F)(F)F)c2)CC1 [FLIBANSERIN]")
"2.43 µM"
>>> test_value("Cc1ccc(C(C)C)c(O)c1 [THYMOL]")
"> 30 µM"
>>> test_value("CC1(C)S[C@@H]2[C@H](NC(=O)[C@H](NC(=O)c3cnc4cccnc4c3O)c3ccccc3)C(=O)N2[C@H]1C(=O)O [APALCILLIN]")
"> 30 µM"
>>> test_value("Cc1cnc(C(=O)O)c[n+]1[O-] [ACIPIMOX]")
"> 30 µM"
>>> test_value("C[C@@H](CN1CC(=O)NC(=O)C1)N1CC(=O)NC(=O)C1 [DEXRAZOXANE]")
"> 30 µM"
>>> test_value("COCC(=O)O[C@]1(CCN(C)CCCc2nc3ccccc3[nH]2)CCc2cc(F)ccc2[C@@H]1C(C)C [MIBEFRADIL]")
"10.1 µM"
>>> test_value("CC(C)=CCC/C(C)=C/CC/C(C)=C/CC/C(C)=C/CC1=C(C)C(=O)c2ccccc2C1=O [MENATETRENONE]")
"> 30 µM"
>>> test_value("C#C[C@]1(OC(C)=O)CC[C@H]2[C@@H]3CCC4=CC(=O)CC[C@@H]4[C@H]3CC[C@@]21C [NORETHINDRONE ACETATE]")
"> 30 µM"
>>> test_value("C[C@@H]1CN(c2c(F)c(N)c3c(=O)c(C(=O)O)cn(C4CC4)c3c2F)C[C@H](C)N1 [SPARFLOXACIN]")
"> 30 µM"
>>> test_value("COc1ccc(C(=O)c2ccccc2)c(O)c1 [OXYBENZONE]")
"> 30 µM"
>>> test_value("CN1CCN(C(c2ccccc2)c2ccc(Cl)cc2)CC1 (centres undefined) [CHLORCYCLIZINE]")
"6.89 µM"
>>> test_value("Cc1cccc(C)c1NC(=O)c1cc(S(N)(=O)=O)c(Cl)cc1O [XIPAMIDE]")
"> 30 µM"
>>> test_value("COc1cc(C[C@@H]2NCCc3cc(O)c(O)cc32)cc(OC)c1OC [TRETOQUINOL]")
"4.72 µM"

* * *

Quick record of AC50 values for Alpha-1A adrenergic receptor (Homo sapiens).
measurement-name: AC50

>>> test_value("CN(C)CCN(Cc1ccccc1)c1ccccn1")
"10.8 µM"
>>> test_value("COc1ccc(C(Cl)=C(c2ccc(OC)cc2)c2ccc(OC)cc2)cc1")
"> 10 µM"
>>> test_value("Nc1cc(N2CCCCC2)nc(N)[n+]1[O-]")
"> 10 µM"
>>> test_value("CC(=O)N1CCN(c2ccc(OCC3COC(Cn4ccnc4)(c4ccc(Cl)cc4Cl)O3)cc2)CC1 (centres undefined)")
"> 10 µM"
>>> test_value("O=C(O)COC(=O)Cc1ccccc1Nc1c(Cl)cccc1Cl")
"> 10 µM"
>>> test_value("CN(Cc1ccc(C(C)(C)C)cc1)Cc1cccc2ccccc12")
"> 10 µM"
>>> test_value("OCC(CO)N[C@H]1C[C@](O)(CO)[C@@H](O)[C@H](O)[C@H]1O")
"> 30 µM"
>>> test_value("CC1Cc2ccccc2N1NC(=O)c1ccc(Cl)c(S(N)(=O)=O)c1 (centres undefined) [INDAPAMIDE]")
"> 10 µM"
>>> test_value("CC1NCCOC1c1ccccc1 (centres undefined)")
"> 10 µM"

* * *

Where a SMILES comes first, the peptide text is derived from it.
Quick record of AC50 values for Melanocortin receptor 3 (Homo sapiens, UniProt P41968).
measurement-name: AC50

>>> test_value("CCC[C@@]1(CCc2ccccc2)CC(O)=C([C@H](CC)c2cccc(NS(=O)(=O)c3ccc(C(F)(F)F)cn3)c2)C(=O)O1")
"> 30 µM"
>>> test_value("CN1CCC(=C2c3ccccc3CC(=O)c3sccc32)CC1")
"> 10 µM"
>>> test_value("CCC(=O)c1ccc2c(c1)N(CC(C)N(C)C)c1ccccc1S2 (stereo not drawn)")
"> 10 µM"
>>> test_value("CC1Cc2ccccc2N1NC(=O)c1ccc(Cl)c(S(N)(=O)=O)c1 (stereo not drawn) [INDAPAMIDE]")
"> 30 µM"
>>> test_value("NCCCNCCSP(=O)(O)O")
"> 30 µM"
>>> test_value("C=CC1=C(C(=O)O)N2C(=O)[C@@H](NC(=O)/C(=N\\O)c3csc(N)n3)[C@H]2SC1")
"> 30 µM"
>>> test_value("Nc1cc(N2CCCCC2)nc(N)[n+]1[O-]")
"> 30 µM"
>>> test_value("CCOC(=O)O[C@]1(C(=O)COC(=O)CC)CC[C@H]2[C@@H]3CCC4=CC(=O)C=C[C@]4(C)[C@H]3[C@@H](O)C[C@@]21C [PREDNICARBATE]")
"> 10 µM"
>>> test_value("CCC(=O)[C@@]1(C)[C@H](C)C[C@H]2[C@@H]3CCC4=CC(=O)C=C[C@]4(C)[C@H]3[C@@H](O)C[C@@]21C [RIMEXOLONE]")
"> 10 µM"
>>> test_value("O=C(c1ccccc1)c1ccc2n1CCC2C(=O)O (stereo not drawn)")
"> 10 µM"
>>> test_value("CCOC(=O)Nc1ccc(NCc2ccc(F)cc2)nc1N")
"> 30 µM"
>>> test_value("CC(=O)[C@@]1(O)CC[C@H]2[C@@H]3C[C@H](C)C4=CC(=O)C=C[C@]4(C)[C@@]3(F)[C@@H](O)C[C@@]21C")
"> 10 µM"
>>> test_value("CC1=C(C(=O)O)N2C(=O)[C@@H](NC(=O)[C@H](N)C3=CCC=CC3)[C@H]2SC1")
"> 30 µM"
>>> test_value("COC(=O)[C@H]1[C@H]2C[C@@H]3c4[nH]c5ccccc5c4CCN3C[C@H]2C[C@@H](OC(=O)c2cc(OC)c(OC)c(OC)c2)[C@@H]1OC")
"> 30 µM"
>>> test_value("CN(C)CCc1c[nH]c2ccc(CS(=O)(=O)N3CCCC3)cc12")
"> 30 µM"
>>> test_value("Oc1cc(Cl)ccc1Oc1ccc(Cl)cc1Cl")
"> 30 µM"
>>> test_value("C[C@]12CCC(=O)C=C1C=C[C@@H]1[C@@H]2CC[C@@]2(C)[C@H]1CC[C@@]21CCC(=O)O1")
"> 30 µM"
>>> test_value("OCCN(CCO)c1nc(N2CCCCC2)c2nc(N(CCO)CCO)nc(N3CCCCC3)c2n1")
"> 30 µM"
>>> test_value("CN(C)[C@@H]1C(O)=C(C(=O)NCN2CCCC2)C(=O)[C@@]2(O)C(O)=C3C(=O)c4c(O)cccc4[C@@](C)(O)[C@H]3C[C@@H]12")
"> 10 µM"
>>> test_value("CC1=C(/C=C/C(C)=C/C=C/C(C)=C/C(=O)Oc2c(C)c(C)c3c(c2C)CCC(C)(CCCC(C)CCCC(C)CCCC(C)C)O3)C(C)(C)CCC1 (stereo not drawn)")
"> 30 µM"
>>> test_value("CCOC(=O)[C@H](CCc1ccccc1)N[C@@H](C)C(=O)N1Cc2ccccc2C[C@H]1C(=O)O")
"> 30 µM"
>>> test_value("C[C@H](N)C(=O)N[C@@H](CCC(N)=O)C(=O)O [ALANYL GLUTAMINE] (H-Ala-Gln-OH)")
"> 30 µM"
>>> test_value("CCn1c(=O)c2c(nc(/C=C/c3ccc(OC)c(OC)c3)n2C)n(CC)c1=O")
"> 30 µM"
>>> test_value("CN(Cc1ccc(C(C)(C)C)cc1)Cc1cccc2ccccc12")
"> 10 µM"
>>> test_value("C[C@]12CCC(=O)C=C1CC[C@H]1[C@@H]3CC[C@](O)(C(=O)CO)[C@@]3(C)C[C@H](O)[C@@]12F")
"> 30 µM"
>>> test_value("O=c1[nH]cc(F)c(=O)[nH]1")
"> 30 µM"
>>> test_value("Nc1nnc(-c2cccc(Cl)c2Cl)c(N)n1")
"> 30 µM"
>>> test_value("CC(C)CN(C[C@@H](O)[C@H](Cc1ccccc1)NC(=O)O[C@H]1CCOC1)S(=O)(=O)c1ccc(N)cc1")
"> 30 µM"
>>> test_value("C[C@H](Nc1ncnc2[nH]cnc12)c1cc2cccc(Cl)c2c(=O)n1-c1ccccc1")
"> 30 µM"
>>> test_value("CC(C(=O)O)c1ccc(C(=O)c2ccccc2)s1 (stereo not drawn)")
"> 10 µM"
>>> test_value("CC1CC(OC(=O)C(O)c2ccccc2)CC(C)(C)C1 (stereo not drawn) [CYCLANDELATE]")
"> 10 µM"
>>> test_value("CCN(CC)CC(=O)Nc1c(C)cccc1C")
"23 µM"
>>> test_value("O=C(O)COC(=O)Cc1ccccc1Nc1c(Cl)cccc1Cl")
"> 30 µM"
